# Protocol notes: Approximate solubility of crystalline form C in dissolution media by visual observation
# Assay type: physicochemical
# Conditions used: simulated gastric fluid, thermodynamic from solid; ES1: pH 1.2 HCl buffer (0.2N); 37°C per table caption (method: 25°C)
Readout type: solubility

Ask: Item under review: C[C@@H]1CC[C@H](C(=O)O)CN1C(=O)Cc1ccc(F)cc1Cl [Crystalline form C] . Reported solubility?
Reply: 500 to 600 µg/mL

* * *

# Protocol notes: Solubility assay of crystalline form A in 17 solvents
# Type: physicochemical
# Conditions used: organic solvent or mixture, thermodynamic from solid; Ethyl acetate, 25°C
Readout type: solubility

Ask: Item under review: C[C@@H]1CC[C@H](C(=O)O)CN1C(=O)Cc1ccc(F)cc1Cl [Crystalline form A] . Reported solubility?
Reply: 41 to 50 mg/mL

* * *

# Protocol notes: Approximate solubility of crystalline form C in dissolution media by visual observation
# Assay type: physicochemical
# Conditions used: thermodynamic from solid; ES7: Water; 37°C per table caption (method: 25°C)
Readout type: solubility

Ask: Item under review: C[C@@H]1CC[C@H](C(=O)O)CN1C(=O)Cc1ccc(F)cc1Cl [Crystalline form C] . Reported solubility?
Reply: 600 to 700 µg/mL

* * *

# Protocol notes: Solubility assay of crystalline form A in 17 solvents
# Assay type: physicochemical
# Conditions used: organic solvent or mixture, thermodynamic from solid; 2-MeTHF, 25°C
Readout type: solubility

Ask: Item under review: C[C@@H]1CC[C@H](C(=O)O)CN1C(=O)Cc1ccc(F)cc1Cl [Crystalline form A] . Reported solubility?
Reply: > 250 mg/mL

* * *

# Protocol notes: Solubility assay of crystalline form A in 17 solvents
# Format: physicochemical
# Conditions used: organic solvent or mixture, thermodynamic from solid; Methyl ethyl ketone, 50°C
Readout type: solubility

Ask: Item under review: C[C@@H]1CC[C@H](C(=O)O)CN1C(=O)Cc1ccc(F)cc1Cl [Crystalline form A] . Reported solubility?
Reply: 250 to 500 mg/mL

* * *

# Protocol notes: Solubility assay of crystalline form A in 17 solvents
# Assay type: physicochemical
# Conditions used: organic solvent or mixture, thermodynamic from solid; Dichloromethane, 25°C
Readout type: solubility

Ask: Item under review: C[C@@H]1CC[C@H](C(=O)O)CN1C(=O)Cc1ccc(F)cc1Cl [Crystalline form A] . Reported solubility?
Reply: > 250 mg/mL

* * *

# Protocol notes: Solubility assay of crystalline form A in 17 solvents
# Format: physicochemical
# Conditions used: organic solvent or mixture, thermodynamic from solid; DMSO, 50°C
Readout type: solubility

Ask: Item under review: C[C@@H]1CC[C@H](C(=O)O)CN1C(=O)Cc1ccc(F)cc1Cl [Crystalline form A] . Reported solubility?
Reply: > 500 mg/mL

* * *

# Protocol notes: Solubility assay of crystalline form A in 17 solvents
# Format: physicochemical
# Conditions used: organic solvent or mixture, thermodynamic from solid; MTBE, 50°C
Readout type: solubility

Ask: Item under review: C[C@@H]1CC[C@H](C(=O)O)CN1C(=O)Cc1ccc(F)cc1Cl [Crystalline form A] . Reported solubility?
Reply: 33 to 50 mg/mL

* * *

# Protocol notes: Solubility assay of crystalline form A in 17 solvents
# Type: physicochemical
# Conditions used: organic solvent or mixture, thermodynamic from solid; Acetone, 50°C
Readout type: solubility

Ask: Item under review: C[C@@H]1CC[C@H](C(=O)O)CN1C(=O)Cc1ccc(F)cc1Cl [Crystalline form A] . Reported solubility?
Reply: > 500 mg/mL
